target: CDK8/Cyclin C (Homo sapiens, UniProt P49336); test: Inhibition of kinase tracer 236 binding to full-length His-tagged recombinant human CDK8/cyclin C incubated for 60 mins by FRET based LanthaScreen Eu-Kinase binding assay
Sequence (P49336 whole entry): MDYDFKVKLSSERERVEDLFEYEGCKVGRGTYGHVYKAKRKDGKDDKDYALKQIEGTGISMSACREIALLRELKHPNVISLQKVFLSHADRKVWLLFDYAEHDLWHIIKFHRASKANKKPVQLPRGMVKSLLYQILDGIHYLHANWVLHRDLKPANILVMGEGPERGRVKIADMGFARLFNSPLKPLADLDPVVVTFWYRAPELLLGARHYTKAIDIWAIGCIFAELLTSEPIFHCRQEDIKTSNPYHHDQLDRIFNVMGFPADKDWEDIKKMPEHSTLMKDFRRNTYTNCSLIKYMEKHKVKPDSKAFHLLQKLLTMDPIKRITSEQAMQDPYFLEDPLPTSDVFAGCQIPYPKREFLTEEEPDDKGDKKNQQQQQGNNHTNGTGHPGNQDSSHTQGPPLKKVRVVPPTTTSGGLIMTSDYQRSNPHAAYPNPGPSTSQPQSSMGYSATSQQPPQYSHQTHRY
Sequence (P24863 whole entry, further chain): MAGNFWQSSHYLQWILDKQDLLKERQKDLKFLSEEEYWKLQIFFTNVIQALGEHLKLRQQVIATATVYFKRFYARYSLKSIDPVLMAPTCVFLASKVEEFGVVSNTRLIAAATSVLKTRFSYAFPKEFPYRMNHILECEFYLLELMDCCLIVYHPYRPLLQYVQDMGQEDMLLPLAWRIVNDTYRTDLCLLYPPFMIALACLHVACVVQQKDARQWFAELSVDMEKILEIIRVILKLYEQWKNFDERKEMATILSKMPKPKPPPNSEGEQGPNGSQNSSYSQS
Listed here are compounds together with their documented pIC50.
Just the number, please; pIC50 means minus log10 of the concentration in mol/L.

Answered examples (2):
>  <Compound>
CCn1c(C(N)=O)cc2c1-c1ccncc1OC2C1CCCCC1 (stereo in doubt; form 1)

>  <Measured value>
9.39

$$$$
>  <Compound>
CCn1c(C(N)=O)cc2c1-c1ccncc1OC21CCCCC1

>  <Measured value>
6.52

$$$$

Could you now consider this next compound?
Need pIC50, item CCn1c(C(N)=O)cc2c1-c1ccncc1OC2C1CCCCC1 (stereo in doubt; form 2)
8.87

----------
system: SW-620; experiment: Antiproliferative activity against human SW-620 cells assessed as reduction in cell proliferation by CellTiter-Glo luminescent cell viability assay; format: functional; settings: Homo sapiens, SW-620
Measured property: GI50 (µM)
Answer with a number only, understood to be in µM.

Some solved entries appear below for comparison.
>  <Compound>
NC(=O)c1cc2c([nH]1)-c1ccncc1OC21CCN(CCc2ccccc2)CC1

>  <GI50, µM>
1

$$$$
>  <Compound>
COCCn1c(C(N)=O)cc2c1-c1ccncc1OC21CCOCC1

>  <GI50, µM>
10

$$$$
>  <Compound>
CN(NC(=O)CC(=O)NN(C)C(=S)c1ccccc1)C(=S)c1ccccc1 [ELESCLOMOL]

>  <GI50, µM>
0.25

$$$$
>  <Compound>
Cn1c(C(N)=O)cc2c1-c1ccncc1OC2(C)C

>  <GI50, µM>
10

$$$$
>  <Compound>
CCn1c(C(N)=O)cc2c1-c1ccncc1OC2C1CCCCC1 (stereo in doubt; form 1)

>  <GI50, µM>
10

$$$$

Could you now consider this next compound?
Fill blank: measured GI50 of the compound NC(=O)c1cc2c(n1CCF)-c1ccncc1OC21CCC1 is ____.
1

----------
target: CDK8/Cyclin C (Homo sapiens); test: Inhibition of kinase tracer 236 binding to full-length His-tagged recombinant human CDK8/cyclin C incubated for 60 mins by FRET based LanthaScreen Eu-Kinase binding assay
pIC50: −log10 of the molar value.
pIC50 by entry:

Take a look at these entries with their results.
>  <Molecule>
CCn1c(C(N)=O)cc2c1-c1ccncc1OC2C1CCOCC1 (stereo not drawn)

>  <Study target>
CDK8/Cyclin C (Homo sapiens)

>  <Measured property>
pIC50

>  <Measured value>
> 8.85

$$$$
>  <Molecule>
NC(=O)c1cc2c(n1CCF)-c1ccncc1OC21CCOCC1

>  <Study target>
CDK8/Cyclin C (Homo sapiens)

>  <Measured property>
pIC50

>  <Measured value>
> 8.85

$$$$

# next molecule below
Look up pIC50 for this molecule: CCn1c(C(N)=O)c(Cl)c2c1-c1ccncc1OC21CCCCC1
> 8.85

----------
system: SW-620; test: Antiproliferative activity against human SW-620 cells assessed as reduction in cell proliferation by CellTiter-Glo luminescent cell viability assay; format: functional; conditions: Homo sapiens, SW-620
Measured property: GI50

Please review the entries below; each comes with its answer.
>  <Compound>
CC1(C)Oc2cnccc2-c2[nH]c(C(N)=O)c(C3CC3)c21

>  <GI50>
1000 nM

$$$$
>  <Compound>
CC(=O)O[C@H]1C(=O)[C@@]2(C)[C@H]([C@H](OC(=O)c3ccccc3)[C@]3(O)C[C@H](OC(=O)[C@H](O)[C@@H](NC(=O)c4ccccc4)c4ccccc4)C(C)=C1C3(C)C)[C@]1(OC(C)=O)CO[C@@H]1C[C@@H]2O [PACLITAXEL]

>  <GI50>
5 nM

$$$$
>  <Compound>
NC(=O)c1cc2c([nH]1)-c1ccncc1OC2C1CCCCC1 (configuration not stated)

>  <GI50>
< 1000 nM

$$$$
>  <Compound>
CCn1c(C(N)=O)cc2c1-c1ccncc1OC21CCCCC1

>  <GI50>
1000 nM

$$$$
>  <Compound>
COc1cc(Nc2ncc3c(n2)-c2ccc(Cl)cc2C(c2c(F)cccc2OC)=NC3)ccc1C(=O)O [ALISERTIB]

>  <GI50>
500 nM

$$$$
>  <Compound>
COc1ccc(S(=O)(=O)Nc2cccnc2Nc2ccc(O)cc2)cc1 [ABT-751]

>  <GI50>
500 nM

$$$$

// GI50 lookup, key: Cn1c(C(N)=O)cc2c1-c1ccncc1OC21CCOCC1
1000 nM

Can you share its GI50? I mean this compound: CCn1c(C(N)=O)cc2c1-c1ccncc1OC21CCOCC1
1000 nM

Bench note: what GI50 did Cn1c(C(N)=O)cc2c1-c1ccncc1OC21CCCCC1 show?
1000 nM

----------
tested on: SW-620; assay: Antiproliferative activity against human SW-620 cells assessed as reduction in cell proliferation by CellTiter-Glo luminescent cell viability assay; type: functional; details: Homo sapiens, SW-620
Entries and their GI50 values follow.

Use these answered entries as a reference point.
>  <Chemical string>
CCn1c(C(N)=O)c(-c2ccccc2OC)c2c1-c1ccncc1OC2(C)C

>  <Measured property>
GI50

>  <Measured value>
10 µM

$$$$
>  <Chemical string>
NC(=O)c1cc2c([nH]1)-c1ccncc1OC21CCN(CC(F)(F)F)CC1

>  <Measured property>
GI50

>  <Measured value>
10 µM

$$$$

Now consider the entry below.
Which measured GI50 belongs to CC1(C)Oc2cnccc2-c2c1cc(C(N)=O)n2CCF , tested on SW-620?
1 µM
